Taken from patent US11814435B2.

# System: cyBCMA
# procedure_text: Kinetics and affinity of cyBCMA/human IgG interactions by SPR (Bio-Rad Proteon XPR36)
# Type: binding, cynomolgus
# run_conditions: 37° C.
Exercise: for every item that follows, state its recorded ka (1/Ms) cyBCMA @ 37° C..
Answers are plain numbers, in M⁻¹ s⁻¹.

L3.PY/L1.FF/H2.DY: anti-BCMA antibody (antibody, V domains shown) VH: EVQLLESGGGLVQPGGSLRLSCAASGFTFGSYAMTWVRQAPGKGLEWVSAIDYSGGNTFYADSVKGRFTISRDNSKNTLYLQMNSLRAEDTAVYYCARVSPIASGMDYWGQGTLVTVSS VL: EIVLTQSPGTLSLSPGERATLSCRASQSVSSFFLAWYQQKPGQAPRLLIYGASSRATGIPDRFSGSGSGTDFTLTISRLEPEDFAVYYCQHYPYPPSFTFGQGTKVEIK; 2.66e+06
L3.PY/L1.PS/H3.TAQ: anti-BCMA antibody (antibody, V domains shown) VH: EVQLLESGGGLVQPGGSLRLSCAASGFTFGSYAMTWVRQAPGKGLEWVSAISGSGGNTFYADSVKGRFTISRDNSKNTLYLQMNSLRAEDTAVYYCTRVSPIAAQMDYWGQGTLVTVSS VL: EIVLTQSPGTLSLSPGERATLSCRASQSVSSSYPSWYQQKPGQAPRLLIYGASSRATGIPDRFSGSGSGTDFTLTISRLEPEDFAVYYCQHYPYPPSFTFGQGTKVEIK; 2.58e+06
L3.PY/L1.PS/H2.YQ: anti-BCMA antibody (antibody, V domains shown) VH: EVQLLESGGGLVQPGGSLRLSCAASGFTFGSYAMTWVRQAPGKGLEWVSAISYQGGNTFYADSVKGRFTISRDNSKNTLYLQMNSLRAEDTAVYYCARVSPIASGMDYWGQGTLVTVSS VL: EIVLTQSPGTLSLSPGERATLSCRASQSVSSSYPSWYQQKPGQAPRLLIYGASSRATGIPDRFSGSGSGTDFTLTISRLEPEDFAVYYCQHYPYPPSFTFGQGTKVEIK; 2e+06

Hi, could you look up ka (1/Ms) cyBCMA @ 37° C. for each item in my list?
1. L3.PY/L1.PS/H2.DY: anti-BCMA antibody (antibody, V domains shown) VH: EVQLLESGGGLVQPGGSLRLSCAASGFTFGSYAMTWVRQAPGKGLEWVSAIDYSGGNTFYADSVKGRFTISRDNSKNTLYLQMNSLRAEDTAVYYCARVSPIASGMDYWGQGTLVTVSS VL: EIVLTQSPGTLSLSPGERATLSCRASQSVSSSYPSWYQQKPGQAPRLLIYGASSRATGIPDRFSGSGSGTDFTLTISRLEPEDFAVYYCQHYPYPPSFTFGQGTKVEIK
2. L3.PY/L3.KF/H3.YA: anti-BCMA antibody (antibody, V domains shown) VH: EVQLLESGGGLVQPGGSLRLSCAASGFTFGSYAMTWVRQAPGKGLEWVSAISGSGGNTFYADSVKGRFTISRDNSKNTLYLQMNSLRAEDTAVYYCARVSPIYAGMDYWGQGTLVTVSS VL: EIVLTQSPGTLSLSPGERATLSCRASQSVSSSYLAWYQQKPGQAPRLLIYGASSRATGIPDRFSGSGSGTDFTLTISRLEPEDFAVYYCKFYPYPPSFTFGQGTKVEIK

## Result
1: 1.9e+06; 2: 2.1e+06
